# Test system: cysteine peptide Ac-RFAACAA-COOH
# procedure_summary: efficacy of cysteine peptide change (negative = depletion) (% activity); higher = less depletion
# measurement_parameters: incubation time: 24 h
Can you tell me efficacy of cysteine peptide change for the items I'm about to list?

Q: Query (compound): CC(C)c1ccc2oc3nc(N)c(C(=O)O)cc3c(=O)c2c1 [Amlexanox] ; field requested: efficacy of cysteine peptide change
A: 4.82

Q: // next record CC#Cc1cc(C)nc(Nc2ccccc2)n1 [Mepanipyrim]
A: -2.96

Q: // next record Oc1ccc2cc(SSc3ccc4cc(O)ccc4c3)ccc2c1 [6-Hydroxy-2-naphthyl disulfide]
A: -97.3

Q: // next record C=CC(=O)OCCOC(=O)CCC(=O)O [4-[2-(Acryloyloxy)ethoxy]-4-oxobutanoic acid]
A: -111

Q: // next record Cc1occc1S [2-Methyl-3-furanthiol]
A: -117

Q: // next record OCc1ccco1 [Furfuryl alcohol]
A: -74.1

Q: // next record Nc1nnc(-c2ccc([N+](=O)[O-])o2)o1 [2-Amino-5-(5-nitro-2-furyl)-1,3,4-oxadiazole]
A: -4.29

Q: // next record CCc1cccc(CC)c1N(COC)C(=O)CCl [Alachlor]
A: 0

Q: // next record CC(C)CCCCCCCOC(=O)c1ccc(C(=O)OCCCCCCCC(C)C)c(C(=O)OCCCCCCCC(C)C)c1 [Triisodecyl trimellitate]
A: -22.8
